protocol notes: Pharmacokinetics and tissue distribution in CD-1 mice
Type: in vivo
measurement setup: female, mouse, liver, IP 10 mg/kg
measurement name: Cmax (ng/mL)
Numeric answer only, unit ng/mL assumed.

Incoming: Sample O=C1C(NCc2ccccc2)=CC2=NCCc3c[nH]c1c32 [BA-TPQ] — what was its Cmax?
Outgoing: 470

* * *

protocol notes: Pharmacokinetics and tissue distribution in nude mice
Format: in vivo
measurement setup: female, nude (nu/nu), mouse, kidneys, IP 10 mg/kg
measurement name: half-life (min)
Numeric answer only, unit min assumed.

Incoming: Sample O=C1C(NCc2ccccc2)=CC2=NCCc3c[nH]c1c32 — what was its half-life?
Outgoing: 29.4

* * *

protocol notes: Pharmacokinetics and tissue distribution in nude mice
Type: in vivo
measurement setup: female, nude (nu/nu), mouse, spleen, IP 10 mg/kg
measurement name: half-life (h)
Numeric answer only, unit h assumed.

Incoming: Sample O=C1C(NCc2ccccc2)=CC2=NCCc3c[nH]c1c32 — what was its half-life?
Outgoing: 1.65

* * *

protocol notes: Pharmacokinetics and tissue distribution in CD-1 mice
Format: in vivo
measurement setup: female, mouse, kidneys, IV 5 mg/kg
measurement name: half-life (min)
Numeric answer only, unit min assumed.

Incoming: Sample O=C1C(NCc2ccccc2)=CC2=NCCc3c[nH]c1c32 — what was its half-life?
Outgoing: 12

* * *

protocol notes: Pharmacokinetics and tissue distribution in nude mice
Type: in vivo
measurement setup: female, nude (nu/nu), mouse, spleen, IP 10 mg/kg
measurement name: Cmax

Incoming: Sample O=C1C(NCc2ccccc2)=CC2=NCCc3c[nH]c1c32 — what was its Cmax?
Outgoing: 31200 ng/mL

* * *

protocol notes: Pharmacokinetics and tissue distribution in nude mice
Type: in vivo
measurement setup: female, nude (nu/nu), mouse, heart, IV 5 mg/kg
measurement name: clearance (mL/min/kg)
Numeric answer only, unit mL/min/kg assumed.

Incoming: Sample O=C1C(NCc2ccccc2)=CC2=NCCc3c[nH]c1c32 — what was its clearance?
Outgoing: 83.3

* * *

protocol notes: Pharmacokinetics and tissue distribution in CD-1 mice
Type: in vivo
measurement setup: female, mouse, plasma, IP 10 mg/kg vs IV 5 mg/kg, read-out: Intraperitoneal bioavailability
measurement name: bioavailability (%)
Numeric answer only, unit % assumed.

Incoming: Sample O=C1C(NCc2ccccc2)=CC2=NCCc3c[nH]c1c32 — what was its bioavailability?
Outgoing: 74

* * *

protocol notes: Pharmacokinetics and tissue distribution in nude mice
Assay type: in vivo
measurement setup: female, nude (nu/nu), mouse, lungs, IV 5 mg/kg
measurement name: AUC (ng·h/mL)
Numeric answer only, unit ng·h/mL assumed.

Incoming: Sample O=C1C(NCc2ccccc2)=CC2=NCCc3c[nH]c1c32 — what was its AUC?
Outgoing: 9180

* * *

protocol notes: Binding to mouse plasma proteins (micro-ultrafiltration)
Assay type: in vitro ADME
measurement setup: non-Swiss albino, mouse, pooled mouse plasma; read-out: Bound to plasma proteins (overall) (converted)
measurement name: fraction unbound at 1 h

Incoming: Sample O=C1C(NCc2ccccc2)=CC2=NCCc3c[nH]c1c32 [BA-TPQ] — what was its fraction unbound at 1 h?
Outgoing: ~0.3

* * *

protocol notes: Pharmacokinetics and tissue distribution in CD-1 mice
Type: in vivo
measurement setup: female, mouse, heart, IP 10 mg/kg
measurement name: Cmax (µg/mL)
Numeric answer only, unit µg/mL assumed.

Incoming: Sample O=C1C(NCc2ccccc2)=CC2=NCCc3c[nH]c1c32 — what was its Cmax?
Outgoing: 7.24
